- PROTOCOL_NOTES: Inhibitory concentration against […] (breast) cells
- Format: functional
- APPLIED_CONDITIONS: Homo sapiens
What GI50 was measured for each of the following?
Provide the reading as a plain figure in µM.

For CCCCCC(C)(C)[C@H](OC(N)=O)[C@@H](C)[C@H](O)CC/C=C\C(C)[C@@H](O)[C@@H](C)/C=C\CC[C@@H]1O[C@@H](OC)[C@H](C)[C@@H](OCOC)[C@@H]1C (stereo partly drawn) , what is its reported GI50?
23

Requested field: GI50. Item: CCCCCC[C@H](OC(N)=O)[C@@H](C)[C@H](O)CC/C=C\C(C)[C@@H](O)[C@@H](C)/C=C\CC[C@@H]1O[C@@H](OC)[C@H](C)[C@@H](OCOC)[C@@H]1C (stereo partly drawn)
24

Which GI50 reading was recorded for the compound C=C/C=C\[C@H](C)[C@H](OC(N)=O)[C@@H](C)[C@H](O)CC/C=C\C(C)[C@@H](O)[C@@H](C)/C=C\CC[C@@H]1O[C@@H](OC)[C@H](C)[C@@H](OCOC)[C@@H]1C (stereo partly drawn) ?
3.4
